- Study System: viral kinase pUL-97 (Human cytomegalovirus, UniProt P16788)
- Construct: The pUL-97 gene was cloned into a baculovirus vector; GST (glutathione S-transferase) (N); made in house; host or cells: Sf9 insect cells, baculovirus
- Sequence (P16788 whole entry): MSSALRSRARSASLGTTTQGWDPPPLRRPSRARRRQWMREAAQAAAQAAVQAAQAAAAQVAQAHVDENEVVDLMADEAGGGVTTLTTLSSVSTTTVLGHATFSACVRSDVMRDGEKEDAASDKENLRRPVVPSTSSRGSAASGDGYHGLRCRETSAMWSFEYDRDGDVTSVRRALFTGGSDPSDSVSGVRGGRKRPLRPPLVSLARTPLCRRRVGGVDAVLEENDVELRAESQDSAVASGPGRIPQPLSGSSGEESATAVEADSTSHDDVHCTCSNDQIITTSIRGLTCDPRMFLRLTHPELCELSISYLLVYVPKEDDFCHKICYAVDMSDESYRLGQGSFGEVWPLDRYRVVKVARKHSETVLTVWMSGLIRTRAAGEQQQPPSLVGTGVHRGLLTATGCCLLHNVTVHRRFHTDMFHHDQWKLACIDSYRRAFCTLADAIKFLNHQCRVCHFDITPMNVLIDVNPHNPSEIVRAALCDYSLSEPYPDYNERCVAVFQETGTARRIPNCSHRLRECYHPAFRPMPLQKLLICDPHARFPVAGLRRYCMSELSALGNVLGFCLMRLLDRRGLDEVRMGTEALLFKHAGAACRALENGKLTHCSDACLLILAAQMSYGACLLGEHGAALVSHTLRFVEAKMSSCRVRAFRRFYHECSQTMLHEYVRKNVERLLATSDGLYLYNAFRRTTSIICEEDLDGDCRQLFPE
- Assay: UL97 kinase assay on Immobilon plate
- Format: biochemical
- Measurement Parameters: inhibition of UL 97 kinase activity; class by IC50 / % inhibition at 10 μM or 100 μM; read-out: Activity Class [A, B, C]
pIC50: −log10 of the molar value.
Experimental Endpoint: pIC50

Molecule	Study System	Result
Cc1ccc(-c2cncc(N3CCN(c4ccc(C)cc4)CC3)n2)cc1 [compound 229]	viral kinase pUL-97 (Human cytomegalovirus, UniProt P16788)	4.00 to 5.00
COc1ccc(N2CCN(c3cncc(-c4ccc(C)cc4)n3)CC2)cc1OC [compound 224]	viral kinase pUL-97 (Human cytomegalovirus, UniProt P16788)	5.00 to 6.00
Cc1cccc(N2CCN(c3cncc(-c4cc5ccccc5s4)n3)CC2)c1C [compound 295]	viral kinase pUL-97 (Human cytomegalovirus, UniProt P16788)	4.00 to 5.00
Fc1ccc(N2CCN(c3cncc(-c4cc5ccccc5s4)n3)CC2)c(F)c1 [compound 272]	viral kinase pUL-97 (Human cytomegalovirus, UniProt P16788)	5.00 to 6.00
CC(=O)c1ccc(N2CCN(c3cncc(-c4ccc(C(C)(C)C)cc4)n3)CC2)cc1 [compound 204]	viral kinase pUL-97 (Human cytomegalovirus, UniProt P16788)	4.00 to 5.00
COc1cccc(N2CCN(c3cncc(-c4ccc(SC)cc4)n3)CC2)c1 [compound 369]	viral kinase pUL-97 (Human cytomegalovirus, UniProt P16788)	5.00 to 6.00
CCOc1ccccc1-c1cncc(N2CCN(c3ccc(C(C)=O)cc3)CC2)n1 [compound 212]	viral kinase pUL-97 (Human cytomegalovirus, UniProt P16788)	4.00 to 5.00
CC(C)(C)c1ccc(-c2cncc(N3CCN(c4ccncc4)CC3)n2)cc1 [compound 257]	viral kinase pUL-97 (Human cytomegalovirus, UniProt P16788)	5.00 to 6.00
CCOc1ccc(-c2cncc(N3CCN(c4ccc(F)cc4)CC3)n2)cc1 [compound 271]	viral kinase pUL-97 (Human cytomegalovirus, UniProt P16788)	4.00 to 5.00
